- Protocol summary: 28-day once weekly oral repeated-dose DRF study in cynomolgus monkeys (mesylate salt)
- Format: in vivo
- Stated conditions: female, cynomolgus monkey, blood, po, 45 mg/kg, F, Day 22
Result type: half-life

### Prompt Param item = CC(C)C[C@@H]1NCCN([C@@H](CC(C)C)C(=O)N2CCC3(C[C@@H]2C)OCC(CN2CCCC2)CO3)C1=O (stereo partly shown) ; retrieve measured half-life.
### Response 5.8 h

* * *

- Protocol summary: Single dose oral and intravenous PK in CD-1 mice (mesylate salt), blood
- Format: in vivo
- Set-up: unit not given here
- Stated conditions: male, CD-1, mouse, whole blood; intravenous 50 mg/kg
Result type: AUC(0-t)
Kindly provide the number alone.

### Prompt Param item = CC(C)C[C@@H]1NCCN([C@@H](CC(C)C)C(=O)N2CCC3(C[C@@H]2C)OCC(CN2CCCC2)CO3)C1=O (stereo partly shown) [Compound 1] ; retrieve measured AUC(0-t).
### Response 12.2

* * *

- Protocol summary: 28-day once weekly oral repeated-dose DRF study in CD-1 mice (mesylate salt), plasma
- Type: in vivo
- Stated conditions: male, CD-1, mouse, plasma, po, 300 mg/kg, 300 mg/kg/week, 4th dose (Week 4)
Result type: Cmax
Numeric answer plus unit only.

### Prompt Param item = CC(C)C[C@@H]1NCCN([C@@H](CC(C)C)C(=O)N2CCC3(C[C@@H]2C)OCC(CN2CCCC2)CO3)C1=O (stereo partly shown) ; retrieve measured Cmax.
### Response 8370 ng/mL

* * *

- Protocol summary: 28-day once weekly oral repeated-dose DRF study in cynomolgus monkeys (mesylate salt)
- Type: in vivo
- Stated conditions: female, cynomolgus monkey, blood, po, 60 mg/kg, F, Day 22
Result type: Cmax (ng/mL)
Return type: number; implicit unit ng/mL.

### Prompt Param item = CC(C)C[C@@H]1NCCN([C@@H](CC(C)C)C(=O)N2CCC3(C[C@@H]2C)OCC(CN2CCCC2)CO3)C1=O (stereo partly shown) [Compound 1] ; retrieve measured Cmax.
### Response 4480

* * *

- Protocol summary: 14-day daily oral repeated-dose DRF study in cynomolgus monkeys (mesylate salt)
- Format: in vivo
- Stated conditions: cynomolgus monkey, plasma, po, 4 mg/kg, 4 mg/kg (Gr. 1), Day 5
Result type: AUC(0-t) (ng·h/mL)
Return type: number; implicit unit ng·h/mL.

### Prompt Param item = CC(C)C[C@@H]1NCCN([C@@H](CC(C)C)C(=O)N2CCC3(C[C@@H]2C)OCC(CN2CCCC2)CO3)C1=O (stereo partly shown) ; retrieve measured AUC(0-t).
### Response 9.5

* * *

- Protocol summary: 28-day once weekly oral repeated-dose DRF study in cynomolgus monkeys (mesylate salt)
- Format: in vivo
- Stated conditions: female, cynomolgus monkey, blood, po, 60 mg/kg, F, Day 22; read-out: AUC0-Tlast
Result type: AUC(0-t) (ng·h/mL)
Return type: number; implicit unit ng·h/mL.

### Prompt Param item = CC(C)C[C@@H]1NCCN([C@@H](CC(C)C)C(=O)N2CCC3(C[C@@H]2C)OCC(CN2CCCC2)CO3)C1=O (stereo partly shown) [Compound 1] ; retrieve measured AUC(0-t).
### Response 17400

* * *

- Protocol summary: 5-day daily oral repeated-dose pilot study in Beagle dogs (mesylate salt)
- Format: in vivo
- Stated conditions: both sexes, Beagle, dog, plasma, po, 2 mg/kg, Day 1
Result type: Tmax

### Prompt Param item = CC(C)C[C@@H]1NCCN([C@@H](CC(C)C)C(=O)N2CCC3(C[C@@H]2C)OCC(CN2CCCC2)CO3)C1=O (stereo partly shown) [Compound 1] ; retrieve measured Tmax.
### Response ~24 min
